Record form. Attribute: Av. Resp.. Fill in for each entry.
# test target: humanized development candidate monoclonal antibody IgG4 (hIgG4)
# experimental protocol: Gyrolab, mAb as capture, hIgG4 200 ng/ml
Numbers only.

binder	recorded number
rabbit anti-human IgG monoclonal antibody clone 19B1 (antibody, V domains shown) VH: QEQLVESGGGLVQPEGSLTLTCTASGFSFSDSYYMCWVRQAPGKGLEWIACIYGGTITNTYYASWAKGRFTISKTSSTTVTLQMTSLTAADTATYFCARDLGAAGDAYNLWGPGTLVTVSS VL: ASDMTQTPASVSEPVGGTVTIKCQASENIYSSLAWYQQKPGQPPKLLIYDASNLASGVPSRFSGSGSGTEFTLTISDLECADAATYYCQCTYRSSSSSYAFGGGTEVVVKG	82.9
rabbit anti-human IgG monoclonal antibody clone 11G5 (antibody, V domains shown) VH: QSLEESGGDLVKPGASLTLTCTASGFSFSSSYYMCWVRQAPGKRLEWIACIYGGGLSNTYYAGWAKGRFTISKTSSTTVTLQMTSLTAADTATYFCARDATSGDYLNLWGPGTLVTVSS VL: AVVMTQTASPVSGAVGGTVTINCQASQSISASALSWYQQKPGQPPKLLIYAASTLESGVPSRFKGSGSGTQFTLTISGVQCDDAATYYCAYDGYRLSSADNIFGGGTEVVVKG	184
rabbit anti-human IgG monoclonal antibody clone 11F9 (antibody, V domains shown) VH: QQQLEESGGGLVQPEGSLTLTCIASGFSFSSSHWICWVRQAPGKGLEWIACMSTSSGSTYDANWAKGRFTISKTSSTTVTLQMTSLTAADTATYFCARDVGGSTTYFDLWGPGTLVTVSS VL: AYDMTQTPASVSEPVGGTVTIKCQASQSISNELSWYQQKPGQPPKLLIYRASTLASGVPSRFKGSGSGTQFTLTINGVECADAATYYCQQGYSISNVDNTFGGGTEVVVKG	148

As a next step, examine the binder that follows.
Any idea what its Av. Resp. is? The binder is rabbit anti-human IgG monoclonal antibody clone 9E6 (antibody, V domains shown) VH: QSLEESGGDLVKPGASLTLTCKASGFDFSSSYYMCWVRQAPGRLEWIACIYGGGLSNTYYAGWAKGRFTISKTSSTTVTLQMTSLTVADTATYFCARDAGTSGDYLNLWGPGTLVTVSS VL: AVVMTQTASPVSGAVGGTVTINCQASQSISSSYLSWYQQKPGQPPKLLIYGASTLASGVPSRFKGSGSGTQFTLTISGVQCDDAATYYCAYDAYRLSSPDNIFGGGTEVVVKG 103
